assay text: Inhibition of hedgehog signaling pathway in mouse Light2 cells harboring wild type Smo after 36 hrs by Gli luciferase activity
Type: cell-based
value kind: IC50 (nM)

molecule: COc1ccc(CN2C[C@@H]3CN(S(=O)(=O)c4ccc(Cl)cc4)CC[C@@H]3Oc3c(NC(=O)C4CC4)cccc3C2=O)cc1 (racemic)
reading: 35.7

====

assay text: Inhibition of hedgehog signaling pathway in mouse Light2 cells in Shh conditioned medium by Gli-luciferase reporter gene assay
Format: cell-based
measurement setup: Mus musculus

compound: COc1ccc(CN2C[C@@H]3CCN(S(=O)(=O)c4ccc(Cl)cc4)C[C@@H]3Oc3c(NC(=O)C4CC4)cccc3C2=O)cc1 (racemic)
unit of measurement: nM
bound sign: =
IC50: 304

compound: COc1ccc(CN2C[C@@H]3CCN(S(=O)(=O)c4ccc(OC)c(OC)c4)C[C@@H]3Oc3c(NC(=O)C4CC4)cccc3C2=O)cc1 (racemic)
unit of measurement: nM
bound sign: >
IC50: 1000

compound: COc1ccc(CN2C[C@@H]3CCN(C(=O)Nc4ccc(F)cc4F)C[C@@H]3Oc3c(NC(=O)C4CC4)cccc3C2=O)cc1 (racemic)
unit of measurement: nM
bound sign: =
IC50: 26

====

assay text: Inhibition of hedgehog signaling pathway in mouse C3H10T1/2 cells assessed as inhibition of hedgehog-induced cell differentiation after 48 hrs by luminescence assay
Type: cell-based
measurement setup: C3H 10T1/2, 48 h
pEC50: −log10 of the molar value.

chemical smiles: C[C@H](CO)N1C[C@H](C)[C@H](CN(C)S(=O)(=O)c2ccc(Cl)cc2Cl)Oc2c(NC(=O)C3CC3)cccc2C1=O
pEC50: 7.22

====

System: KB
assay text: Cytotoxicity against human KB cells
Format: cell-based
pIC50: −log10 of the molar value.
value kind: pIC50

compound: COc1ccc(CN2C[C@@H]3CN(S(=O)(=O)c4ccc(Cl)cc4)CC[C@@H]3Oc3c(NC(=O)C4CC4)cccc3C2=O)cc1 (racemic)
tested target: KB
value kind: pIC50
reading: < 4.70

====

assay text: Inhibition of hedgehog signaling pathway in mouse Light2 cells harboring Smo W535L mutant after 36 hrs by Gli luciferase activity
Format: cell-based
pIC50: −log10 of the molar value.

molecule: COc1ccc(CN2C[C@@H]3CN(S(=O)(=O)c4ccc(Cl)cc4)CC[C@@H]3Oc3c(NC(=O)C4CC4)cccc3C2=O)cc1 (racemic)
pIC50: 7.40

====

assay text: Inhibition of hedgehog signaling pathway in mouse Light2 cells in Shh conditioned medium by Gli-luciferase reporter gene assay
Type: cell-based
measurement setup: Mus musculus
pIC50: −log10 of the molar value.
Each record here notes measured pIC50.
value kind: pIC50

compound: COc1ccc(CN2C[C@@H]3CN(S(=O)(=O)c4ccc(Cl)cc4)CC[C@@H]3Oc3c(NC(=O)C4CC4)cccc3C2=O)cc1 (racemic)
bound sign: =
reading: 7.64

compound: COc1ccc(CN2C[C@@H]3CN(S(=O)(=O)c4ccc(Cl)s4)CC[C@@H]3Oc3c(NC(=O)C4CC4)cccc3C2=O)cc1 (racemic)
bound sign: =
reading: 7.34

compound: COc1ccc(CN2C[C@@H]3CN(S(=O)(=O)c4ccc(Cl)s4)CC[C@@H]3Oc3ccc(NC(=O)C4CC4)cc3CC2=O)cc1 (racemic)
bound sign: =
reading: 5.79

compound: CN1CCC(N2C[C@@H]3CCN(S(=O)(=O)c4ccc(Cl)cc4)C[C@@H]3Oc3c(NC(=O)C4CC4)cccc3C2=O)CC1 (racemic)
bound sign: =
reading: 6.46

compound: O=C(Nc1cccc2c1OCC1CN(S(=O)(=O)c3ccc(Cl)cc3)CCN1C2=O)C1CC1 (stereo unspecified)
bound sign: <
reading: 6.00

compound: O=C(Nc1cccc2c1O[C@H]1CN(S(=O)(=O)c3ccc(Cl)cc3)CC[C@H]1CN(Cc1cccnc1)C2=O)C1CC1 (racemic)
bound sign: <
reading: 6.00

====

Each record here notes measured log10 of IC50.
assay text: Inhibition of hedgehog signaling pathway in mouse Light2 cells in Shh conditioned medium by Gli-luciferase reporter gene assay
Type: cell-based
measurement setup: Mus musculus
value kind: log10 of IC50 (log10 of the value in nM)

molecule: COc1ccc(CN2C[C@@H]3CN(S(=O)(=O)c4ccn(C)n4)CC[C@@H]3Oc3c(NC(=O)C4CC4)cccc3C2=O)cc1 (racemic)
value kind: log10 of IC50
reading: 2.16
--
molecule: O=C(Nc1cccc2c1OCC1CN(S(=O)(=O)c3ccc(Cl)s3)CCN1C2=O)C1CC1 (stereo unspecified)
value kind: log10 of IC50
reading: 2.68
--
molecule: COc1ccc(CN2C[C@@H]3CCN(S(=O)(=O)c4ccc(Cl)cc4)C[C@@H]3Oc3ccc(NC(=O)C4CC4)cc3CC2=O)cc1 (racemic)
value kind: log10 of IC50
reading: 2.70
--
molecule: COc1ccc(CN2C[C@@H]3CCN(C(=O)Nc4ccc(C(F)(F)F)cc4)C[C@@H]3Oc3c(NC(=O)C4CC4)cccc3C2=O)cc1 (racemic)
value kind: log10 of IC50
reading: 2.47
--
molecule: COc1ccc(CN2CC3CN(S(=O)(=O)c4ccc(Cl)cc4Cl)CCC3Oc3c(NC(=O)C4CC4)cccc3C2=O)cc1 (racemic)
value kind: log10 of IC50
reading: 1.52
--
molecule: COc1ccc(CN2CC3CN(S(=O)(=O)c4ccc(NC(C)=O)cc4)CCC3Oc3c(NC(=O)C4CC4)cccc3C2=O)cc1 (racemic)
value kind: log10 of IC50
reading: 2.89
--
molecule: CS(=O)(=O)c1ccc(C(=O)Nc2ccc(Cl)c(-c3ccccn3)c2)c(Cl)c1 [VISMODEGIB]
value kind: log10 of IC50
reading: 1.59
--
molecule: C[C@H](CO)N1C[C@H](C)[C@H](CN(C)S(=O)(=O)c2ccc(Cl)cc2Cl)Oc2c(NC(=O)C3CC3)cccc2C1=O
value kind: log10 of IC50
reading: 2.58
--
molecule: COc1ccc(CN2C[C@@H]3CCN(S(=O)(=O)c4ccc(Cl)s4)C[C@@H]3Oc3c(NC(=O)C4CC4)cccc3C2=O)cc1 (racemic)
value kind: log10 of IC50
reading: 2.22
--
molecule: COc1ccc(CN2C[C@@H]3CCN(S(=O)(=O)c4ccn(C)n4)C[C@@H]3Oc3c(NC(=O)C4CC4)cccc3C2=O)cc1 (racemic)
value kind: log10 of IC50
reading: 1.97
--
molecule: COc1ccc(CN2C[C@@H]3CCN(S(=O)(=O)c4ccc(Cl)cc4Cl)C[C@@H]3Oc3c(NC(=O)C4CC4)cccc3C2=O)cc1 (racemic)
value kind: log10 of IC50
reading: 2.88
--
molecule: COc1ccc(CN2CC3CN(C(=O)Nc4ccc(F)cc4F)CCC3Oc3c(NC(=O)C4CC4)cccc3C2=O)cc1 (racemic)
value kind: log10 of IC50
reading: 2.73
--
molecule: COc1ccc(CN2C[C@@H]3CCN(S(=O)(=O)c4ccc(NC(C)=O)cc4)C[C@@H]3Oc3c(NC(=O)C4CC4)cccc3C2=O)cc1 (racemic)
value kind: log10 of IC50
reading: 1.62
--
molecule: COc1ccc(CN2C[C@H]3CN(S(=O)(=O)c4ccc(Cl)cc4)CC[C@H]3Oc3c(NC(=O)C4CC4)cccc3C2=O)cc1
value kind: log10 of IC50
reading: 2.30

All values here come from ChEMBL document CHEMBL4017514.
